System: CCRF-CEM leukemia
PROTOCOL_NOTES: NCI tumour cell line growth inhibition, 48 h; in the data active means GI50 below about 0.43 µM; inactive means the rest
Outcome codes: Yes = active, No = inactive

# COMPOUND, QUALITATIVE_LABEL
data = [
    ("C=C1C(=O)O[C@H]2[C@H]1CC/C(COC(=O)NCc1ccc(Cn3c(=O)sn(CCCCC)c3=O)cc1)=C\\CC[C@@]1(C)O[C@@H]21", "Yes"),
    ("CN(C)CCCOc1cccc(NC2=C(Cl)C(=O)C(Nc3cccc(OCCCN(C)C)c3)=C(Cl)C2=O)c1", "Yes"),
    ("ClCc1cccc(Cn2cnc3c(Cl)nc(Cl)nc32)c1", "No"),
    ("C=C1C(=O)O[C@H]2[C@H]1CC/C(COC(=O)N[C@H]1C[C@H](O[C@H]3C[C@](O)(C(=O)CO)Cc4c(O)c5c(c(O)c43)C(=O)c3c(OC)cccc3C5=O)O[C@@H](C)[C@H]1O)=C\\CC[C@@]1(C)O[C@@H]21", "No"),
    ("COc1cc(OCc2cccc(-c3ccccc3)c2C)cc(OC)c1CN1CCCCC1C(=O)NCCOCCOCCN (stereo not given)", "No"),
    ("Clc1ccc(/C=C/c2ccc3ccccc3n2)cc1", "No"),
    ("O=C(NN1C(=O)CSC1c1cccc(Cl)c1)C(O)c1ccccc1 (stereo not given)", "No"),
    ("CCOC(=O)c1ccc(NC(=O)NC2=NCCS2)cc1", "No"),
    ("O=C(CC1(O)C(=O)Nc2ccc(F)cc21)c1ccc(C(=O)NCC2CCC3(CC2)OOC2(CCCCC2)OO3)cc1 (stereo not given)", "No"),
    ("CCCCCCNCCCNc1c2cc(OC)ccc2nc2cccc([N+](=O)[O-])c12", "Yes"),
]
